# Tested on: H3K18Ac in HB-CLS-2 cells
# Test protocol: H3K18AC in-cell western (ICW) assay
# Format: cell-based
# Test conditions: H3K18Ac in-cell western; read-out: CREBBP ICW IC50
Measured metric: IC50 (nM)
One number for each entry, in nM.

Before answering, review these 3 worked examples.
1. CCn1ncc(CN(C)C(=O)c2nc(-c3cc(Cl)cc(CN4CCNCC4)c3)nc3ccc(Cl)cc23)c1C = 3900
2. CCn1ncc(CN(C)C(=O)c2nc(-c3ccc(OCCCO)c(C)c3)nc3ccc(Cl)cc23)c1C = 730
3. CCc1noc(C(C)N(C)C(=O)c2nc(-c3ccc(NCCN(C)C)c(C)c3)nc3ccc(Cl)cc23)c1C (stereo not drawn) = 294

Batch request: IC50 for each of the following compounds.
1. CCn1ncc(CN(C)C(=O)c2nc(-c3cc4c(N)nn(C)c4cc3C)nc3ccc(Cl)cc23)c1C
2. CCc1ncc(CN(C)C(=O)c2nc(-c3cccc(Cl)c3)nc3ccc(Cl)cc23)n1C

Response:
[20000, 300]

----------
# System: H3K18Ac in HB-CLS-2 cells
# Test protocol: H3K18AC in-cell western (ICW) assay
# Assay type: cell-based
# Test conditions: H3K18Ac in-cell western; read-out: CREBBP ICW IC50
Please use t for IC50 under 3000 nM and f for everything else, ties included.

Recorded results for 6 compounds are shown here.
1) CCn1ncc(CN(C)C(=O)c2nc(-c3cc(C)c4nc[nH]c4c3)nc3ccc(COC)cc23)c1C [Compound 439] = t
2) CCn1ncc(CN(C)C(=O)c2nc(N3CCCN(C)CC3)nc3ccc(Cl)cc23)c1C [Compound 196] = f
3) CCn1ncc(CN(C)C(=O)c2nc(-c3cc(Cl)cc(NCCNC)c3)nc3ccc(Cl)cc23)c1C [Compound 12] = t
4) CCn1ncc(CN(C)C(=O)c2nc(-c3cccc(Cl)c3)nc3c(CNC)cc(Cl)cc23)c1C [Compound 85] = t
5) CCn1ncc(CN(C)C(=O)c2nc(-c3cc(C)cc(N[C@H]4CCNC4)c3)nc3ccc(Cl)cc23)c1C [Compound 476] = t
6) CCn1ncc(CN(C)C(=O)c2nc(-c3ccnc(NC)c3)nc3ccc(Cl)cc23)c1C [Compound 155] = f

Query: Threshold test, IC50 < 3000 nM: CCn1ncc(CN(C)C(=O)c2cc(-c3cc(-c4ncc[nH]4)n(C)n3)nc3ccc(Cl)cc23)c1C [Compound 542]
Response: t

Query: IC50 strictly < 3000 nM for this compound? CCn1ncc(CN(C)C(=O)c2nc(-c3cc(C#N)cc(NCCNC)c3)nc3ccc(Cl)cc23)c1C [Compound 9]
Response: t

Query: Consider CCn1ncc(CN(C)C(=O)c2nc(-c3cc(C)cc(NC(=O)CNC)c3)nc3ccc(Cl)cc23)c1C [Compound 13] . Does its IC50 lie strictly below 3000 nM?
Response: t

Query: Given the entry CCc1onc(CN(C)C(=O)c2cc(-c3ccc(NCCNC)c(C)n3)nc3ccc(Cl)cc23)c1C [Compound 548] , would its reported IC50 be below 3000 nM?
Response: t

Query: Consider the compound CCn1ncc(CN(C)C(=O)c2nc(-c3cc(C(=O)NCCCN4CCCC4)[nH]n3)nc3ccc(Cl)cc23)c1C [Compound 75] . Is its IC50 strictly less than 3000 nM?
Response: t

Query: Does the reported IC50 of CCn1ncc(CN(C)C(=O)c2nc(-c3ccc(NC4CCOCC4)c(OC)c3)nc3ccc(Cl)cc23)c1C [Compound 64] stay below 3000 nM?
Response: t

Query: Please let me know if CCn1ncc(CN(C)C(=O)c2cc(-c3ccc(N(C)C)nn3)nc3ccc(Cl)cc23)c1C [Compound 502] shows IC50 below 3000 nM.
Response: t

Query: Strictly below 3000 nM in IC50? CCn1ncc(CN(C(=O)c2cc(-c3ccc(NCCNC)c(C)n3)nc3ccc(Cl)cc23)C(C)C)c1C [Compound 465]
Response: f

Query: # check: IC50 < 3000 nM for CCn1ncc(CN(C)C(=O)c2cc(-c3ccc(NCC4CN(C)CCO4)c(C)n3)nc3ccc(Cl)cc23)c1C (stereo not drawn) [Compound 628]
Response: f

Query: Problem: For the compound Cc1c(CN(C)C(=O)c2cc(-c3cccc(Cl)c3)nc3ccc(Cl)cc23)cnn1C(C)C [Compound 132] , is IC50 under 3000 nM?
Response: f

Query: Record CCc1ncc(CN(C)C(=O)c2cc(-c3cc(C(=O)NC)n(C)n3)nc3ccc(COC)cc23)n1C [Compound 627] : is its IC50 strictly below 3000 nM?
Response: t

Query: Quick check: IC50 of CCn1ncc(CN(C)C(=O)c2cc(-c3ccc(NC4CNCC4(F)F)c(C)n3)nc3ccc(Cl)cc23)c1C (stereo not drawn) [Compound 538] under 3000 nM?
Response: t

Query: hey, is IC50 for CCn1ncc(CN(C)C(=O)c2nc(-c3cc(Cl)cc(OCCCNC)c3)nc3ccc(Cl)cc23)c1C [Compound 128] lower than 3000 nM or not?
Response: f

Query: # TODO verify IC50 < 3000 nM strictly for this compound: CCn1ncc(CN(C)C(=O)c2nc(-c3cn[nH]c3)nc3ccc(Cl)cc23)c1C [Compound 125]
Response: f

Query: Check if IC50 falls below 3000 nM for CCn1ncc(CN(C)C(=O)c2cc(-c3ccc(NCC(O)CNC)c(C)n3)nc3ccc(Cl)cc23)c1C (stereo not drawn) [Compound 457] .
Response: t

Query: Does CCn1ncc(CN(C)C(=O)c2nc(-c3cc4c(NC)[nH]nc4cc3C)nc3ccc(C)cc23)c1C [Compound 612] have IC50 strictly under 3000 nM?
Response: t

Query: Please let me know if CCn1ncc(CN(C)C(=O)c2nc(N3CCc4cn[nH]c4C3)nc3ccc(Cl)cc23)c1C [Compound 161] shows IC50 below 3000 nM.
Response: f
